method_description: Study 1: pharmacokinetics of octreotide delivered via RP or IV injection (plasma LC/MS/MS)
condition_details: human, in vivo, 100 ug
assay_endpoint: Tmax (min)
Give bare numbers, in min.

-- ask Using the record for C[C@@H](O)[C@@H]1NC(=O)[C@H](CCCCN)NC(=O)[C@@H](Cc2c[nH]c3ccccc23)NC(=O)[C@H](Cc2ccccc2)NC(=O)[C@@H](NC(=O)[C@H](N)Cc2ccccc2)CSSC[C@@H](C(=O)N[C@H](CO)[C@@H](C)O)NC1=O [octreotide] , report its Tmax.
-- reply 5

Just for reference, paper PMC8677648 is where these values come from.
